I'd be grateful if you could share measured pest or weed control at 125 g/ha for these entries.
# System: morningglory (Ipomoea coccinea)
# ASSAY INFO: Test C preemergence
# Assay type: in vivo
# TEST SETTINGS: Ipomoea, pre-emergence, 336 h; 125 g ai/ha, preemergence; scale 0 to 100; read-out: Plant response rating, Morningglory
Give bare numbers, in %.

Sample records with pest or weed control at 125 g/ha:
STRUCTURE SMILES STRING	pest or weed control at 125 g/ha (%)
Fc1cnc(Oc2c(Cl)cccc2Oc2ncc(Cl)cn2)nc1	70
Fc1cccc(Oc2ncc(Cl)cn2)c1Oc1ncc(C(F)(F)F)cn1	100
Fc1cccc(Oc2ncc(C(F)(F)F)cn2)c1Oc1ncc(Cl)cn1	100
Fc1cnc(Oc2c(F)cccc2Oc2ncc(Cl)cn2)nc1	98

Pending compound:
For the compound shown here, Fc1cnc(Oc2c(Br)cccc2Oc2ncc(Cl)cn2)nc1 , give the reported pest or weed control at 125 g/ha. 95

---

# System: galium (catchweed bedstraw, Galium aparine)
# ASSAY INFO: Test C postemergence
# Assay type: in vivo
# TEST SETTINGS: Galium, post-emergence, 336 h; Postemergence, 31 g ai/ha, scale 0 to 100; read-out: Plant response rating, Galium
TEST READOUT: pest or weed control at 31 g/ha (%)
Answers are plain numbers, in %.

For every item below, please supply its pest or weed control at 31 g/ha.
1. Fc1cnc(Oc2c(Br)cccc2Oc2ncc(Cl)cn2)nc1 [Compound 22]
2. Clc1cnc(Oc2cccc(Cl)c2Oc2ncc(Br)cn2)nc1 [Compound 17]
3. Fc1cccc(Oc2ncc(Cl)cn2)c1Oc1ccc(Cl)nc1 [Compound 20]
4. Fc1cccc(Oc2ncc(Cl)cn2)c1Oc1ncc(C(F)(F)F)cn1 [Compound 43]

70
70
50
80

---

# Tested on: yellow nutsedge (Cyperus esculentus)
# ASSAY INFO: Test C postemergence
# Assay type: in vivo
# TEST SETTINGS: Cyperus, post-emergence, 336 h; Postemergence, 125 g ai/ha, scale 0 to 100; read-out: Plant response rating, Nutsedge, Yellow
I'd be grateful if you could share measured pest or weed control at 125 g/ha for these entries.
Answers are plain numbers, in %.

Sample records with pest or weed control at 125 g/ha:
STRUCTURE SMILES STRING	TARGET SYSTEM	TEST RESULT
Fc1cnc(Oc2c(Br)cccc2Oc2ncc(Cl)cn2)nc1	yellow nutsedge (Cyperus esculentus)	10
N#Cc1cccc(Oc2ncc(Cl)cn2)c1Oc1ccc(Cl)cn1	yellow nutsedge (Cyperus esculentus)	15
Fc1cccc(Oc2ncc(Cl)cn2)c1Oc1ncc(Br)cn1	yellow nutsedge (Cyperus esculentus)	10
N#Cc1cccc(Oc2ncc(C(F)(F)F)cn2)c1Oc1ncc(Cl)cn1	yellow nutsedge (Cyperus esculentus)	5
N#Cc1cccc(Oc2ncc(Cl)cn2)c1Oc1ncc(Cl)cn1	yellow nutsedge (Cyperus esculentus)	5

Pending molecule:
For the molecule shown here, N#Cc1cccc(Oc2ncc(Cl)cn2)c1Oc1ncc(C(F)(F)F)cn1 , give the reported pest or weed control at 125 g/ha. 10

---

# System: barnyardgrass (Echinochloa crus-galli)
# ASSAY INFO: Test C postemergence
# Format: in vivo
# TEST SETTINGS: Echinochloa crus-galli, post-emergence; Postemergence, 250 g ai/ha, scale 0 to 100; read-out: Plant response rating, Barnyardgrass
I'd be grateful if you could share measured pest or weed control at 250 g/ha for these entries.
One number for each entry, in %.

Sample records with pest or weed control at 250 g/ha:
STRUCTURE SMILES STRING	TEST RESULT
Fc1cnc(Oc2c(F)cccc2Oc2ncc(Cl)cn2)nc1	25
N#Cc1cccc(Oc2ncc(Cl)cn2)c1Oc1ncc(Cl)cn1	60
Clc1cnc(Oc2cccc(Cl)c2Oc2ncc(Br)cn2)nc1	10

Pending compound:
For the compound shown here, Fc1cccc(Oc2ncc(Cl)cn2)c1Oc1ccc(Cl)nc1 , give the reported pest or weed control at 250 g/ha. 10

---

# System: soybean (Glycine max)
# ASSAY INFO: Test C preemergence
# Assay type: in vivo
# TEST SETTINGS: Glycine max, pre-emergence; 62 g ai/ha, preemergence; scale 0 to 100; read-out: Plant response rating, Soybean
# cutoff 80% applies to plant injury at 62 g/ha; >= gives fulfilled, < gives not fulfilled

STRUCTURE SMILES STRING	QUALITATIVE LABEL
Clc1cnc(Oc2cccc(Br)c2Oc2ncc(Cl)cn2)nc1	fulfilled
N#Cc1cccc(Oc2ncc(Cl)cn2)c1Oc1cnc(Cl)cn1	not fulfilled

Say whether Fc1cccc(Oc2ncc(Cl)cn2)c1Oc1ncc(C(F)(F)F)cn1 shows plant injury at 62 g/ha of 80% or more. not fulfilled

Say whether N#Cc1cccc(Oc2ncc(Br)cn2)c1Oc1ncc(Cl)cn1 shows plant injury at 62 g/ha of 80% or more. not fulfilled

---

# System: galium (catchweed bedstraw, Galium aparine)
# ASSAY INFO: Test C postemergence
# Type: in vivo
# TEST SETTINGS: Galium, post-emergence, 336 h; Postemergence, 125 g ai/ha, scale 0 to 100; read-out: Plant response rating, Galium
// classify: if (pest or weed control at 125 g/ha < 90%) T else F

is_below(pest or weed control at 125 g/ha, 90%) for Fc1cnc(Oc2c(F)ccc(F)c2Oc2ncc(F)cn2)nc1 [Compound 29] ? F

is_below(pest or weed control at 125 g/ha, 90%) for N#Cc1cccc(Oc2ncc(Cl)cn2)c1Oc1ccc(Cl)cn1 [Compound 16] ? F

is_below(pest or weed control at 125 g/ha, 90%) for FC(F)c1cccc(Oc2ncc(Cl)cn2)c1Oc1ncc(Cl)cn1 [Compound 46] ? T

is_below(pest or weed control at 125 g/ha, 90%) for Fc1ccc(F)c(Oc2ncc(Cl)cn2)c1Oc1ncc(Cl)cn1 [Compound 34] ? T

is_below(pest or weed control at 125 g/ha, 90%) for N#Cc1cccc(Oc2ncc(Cl)cn2)c1Oc1ncc(Br)cn1 [Compound 4] ? F

---

# Tested on: corn (Zea mays)
# ASSAY INFO: Test C postemergence
# Type: in vivo
# TEST SETTINGS: Zea mays, post-emergence, 336 h; Postemergence, 125 g ai/ha, scale 0 to 100
TEST READOUT: Corn plant response rating (crop injury, 0 = no effect, 100 = complete kill) at 125 g/ha (%)
One number for each entry, in %.

STRUCTURE SMILES STRING	TEST RESULT
Fc1cnc(Oc2c(Br)cccc2Oc2ncc(Cl)cn2)nc1	10
Fc1cnc(Oc2c(F)cccc2Oc2ncc(Cl)cn2)nc1	10
Clc1cnc(Oc2cccc(Cl)c2Oc2ncc(Br)cn2)nc1	20
N#Cc1cccc(Oc2ncc(Cl)cn2)c1Oc1cnc(Cl)cn1	25
Fc1cccc(Oc2ncc(Cl)cn2)c1Oc1ncc(C(F)(F)F)cn1	5
N#Cc1cccc(Oc2ncc(Cl)cn2)c1Oc1ncc(Br)cn1	10
N#Cc1cccc(Oc2ncc(Cl)cn2)c1Oc1ccc(Cl)cc1	20

For the compound shown here, Fc1cccc(Oc2ncc(Cl)cn2)c1Oc1ccc(Cl)nc1 , give the reported Corn plant response rating (crop injury, 0 = no effect, 100 = complete kill) at 125 g/ha. 20

---

I'd be grateful if you could share measured Corn plant response rating (crop injury, 0 = no effect, 100 = complete kill) at 31 g/ha for these entries.
# Test system: corn (Zea mays)
# ASSAY INFO: Test C preemergence
# Type: in vivo
# TEST SETTINGS: Zea mays, pre-emergence, 336 h; 31 g ai/ha, preemergence; scale 0 to 100
Answers are plain numbers, in %.

Sample records with Corn plant response rating (crop injury, 0 = no effect, 100 = complete kill) at 31 g/ha:
STRUCTURE SMILES STRING	TARGET SYSTEM	TEST RESULT
N#Cc1cccc(Oc2ncc(Br)cn2)c1Oc1ncc(Cl)cn1	corn (Zea mays)	25
N#Cc1cccc(Oc2ncc(Cl)cn2)c1Oc1ncc(Br)cn1	corn (Zea mays)	5
N#Cc1cccc(Oc2ncc(C(F)(F)F)cn2)c1Oc1ncc(Cl)cn1	corn (Zea mays)	40
Fc1cnc(Oc2c(F)ccc(F)c2Oc2ncc(F)cn2)nc1	corn (Zea mays)	15
Fc1cccc(Oc2ncc(Cl)cn2)c1Oc1ncc(Br)cn1	corn (Zea mays)	10

For every item below, please supply its Corn plant response rating (crop injury, 0 = no effect, 100 = complete kill) at 31 g/ha.
1. N#Cc1cccc(Oc2ncc(Cl)cn2)c1Oc1ncc(Cl)cn1
2. N#Cc1cccc(Oc2ncc(Cl)cn2)c1Oc1ccc(Br)cn1
3. FC(F)c1cccc(Oc2ncc(Cl)cn2)c1Oc1ncc(Cl)cn1

1: 20; 2: 0; 3: 25

---

# Test system: barnyardgrass (Echinochloa crus-galli)
# ASSAY INFO: Test C preemergence
# Assay type: in vivo
# TEST SETTINGS: Echinochloa crus-galli, pre-emergence; Preemergence, 16 g ai/ha; scale 0 to 100 (0 no effect, 100 complete control); read-out: Plant response rating, Barnyardgrass
TEST READOUT: pest or weed control at 16 g/ha (%)
Answers are plain numbers, in %.

MOLECULE	TARGET SYSTEM	pest or weed control at 16 g/ha (%)
N#Cc1cccc(Oc2ncc(Br)cn2)c1Oc1ncc(Cl)cn1 [Compound 5]	barnyardgrass (Echinochloa crus-galli)	20

For every item below, please supply its pest or weed control at 16 g/ha.
1. Fc1cnc(Oc2c(F)ccc(F)c2Oc2ncc(F)cn2)nc1 [Compound 29]
2. Fc1cccc(Oc2ncc(Cl)cn2)c1Oc1ncc(C(F)(F)F)cn1 [Compound 43]
3. Fc1cccc(Oc2ncc(C(F)(F)F)cn2)c1Oc1ncc(Cl)cn1 [Compound 42]

25
60
50
